- TEST_DESCRIPTION: NCI Yeast Anticancer Drug Screen. Data for the rad50 strain (AID 155)
- MEASUREMENT_CONDITIONS: S. cerevisiae rad50 strain growth inhibition; at 3.7 µM; hits give high values
The panel holds about 79,000 compounds, 15% with a hit somewhere; the sample as a whole holds those more often.
Assign class by growth inhibition: not lower than -10% means Yes; lower than -10% means No.

Solved cases below.
{"columns": ["COMPOUND", "CLASS_LABEL"],
 "data": [
  ["O=C(/C=C/c1cccc(Br)c1)c1cccs1", "Yes"],
  ["OC1CSCCCSCCSCCCSC1", "No"],
  ["Cc1nc(-c2ccccc2)c(-c2ccccc2)s1", "No"]
]}

**Query** # bool: growth inhibition of CCOC(=O)C(NC(=O)c1ccccc1)(N1CCN(c2cc3c(cc2F)c(=O)c(C(=O)O)cn3C2CC2)CC1)C(F)(F)F (configuration not stated) >= -10%
**Result** Yes

**Query** # bool: growth inhibition of CCCc1cc(C(=O)OCC)cc(CCC)c1O >= -10%
**Result** No

**Query** # bool: growth inhibition of COc1ccc(N=C2C(=O)Nc3ccc(Br)cc32)cc1 >= -10%
**Result** No

**Query** # bool: growth inhibition of COc1ccc(/C=C2\SC(=S)N(/C=C/c3nc4ccccc4[nH]c3=O)C2=O)cc1OC >= -10%
**Result** Yes

**Query** # bool: growth inhibition of C/C(=N\O)C1CC2C=C(C#N)C1N(Cc1ccccc1)C2 (configuration not stated) >= -10%
**Result** Yes

**Query** # bool: growth inhibition of O=C(Nc1ccccc1)OCCc1ccc(Cl)c(Cl)c1 >= -10%
**Result** Yes

**Query** # bool: growth inhibition of CNC(=O)OCc1c(COC(=O)NC)c(-c2ccc(-c3ccccc3)cc2)n(C)c1C >= -10%
**Result** No

**Query** # bool: growth inhibition of NC(=O)NN=C(CS)CS >= -10%
**Result** Yes

**Query** # bool: growth inhibition of O=S(=O)(CCCl)c1ccccc1Cl >= -10%
**Result** No

**Query** # bool: growth inhibition of COC(=O)C1=C(C(=O)OC)C2(C)C=CC1O2 (configuration not stated) >= -10%
**Result** No

**Query** # bool: growth inhibition of OC1(c2ccccc2)CSC2=Nc3ccccc3C3CCN1N23 (configuration not stated) >= -10%
**Result** No

**Query** # bool: growth inhibition of CSC(=S)Nc1cc(C)ccn1 >= -10%
**Result** Yes

**Query** # bool: growth inhibition of O=C1C=CC(=C(c2ccccc2)c2ccccc2)c2ccccc21 >= -10%
**Result** Yes

**Query** # bool: growth inhibition of CN(C)CCn1c2c3ccccc3ccc2c2oc(=O)c3ccccc3c21 >= -10%
**Result** Yes

Recorded values, source PubChem BioAssay (NCI).
